Ref: ChEMBL document CHEMBL1201862

- test name: cells
- Format: functional, cell-based
Calls of active or inactive are those of the source.

# molecule, EC50
measured = [
    ("COc1cccc(C(NC(C)=O)c2ccc3cccnc3c2O)c1 (centres undefined)", "7.47 µM (active)"),
    ("O=C(N/N=C/c1cc(O)ccc1Br)c1cccnc1", "165 µM (active)"),
    ("C/C(=N\\OCc1nc2ccccc2c(=O)n1/N=C/c1cc([N+](=O)[O-])ccc1O)c1ccccc1", "245 µM (active)"),
    ("Cc1ccc(Nc2c(-c3ccccn3)nc3ccc(C)cn23)cc1", "79.5 µM (active)"),
]

---

- system tested: E3 ubiquitin-protein ligase XIAP (Homo sapiens, UniProt P98170)
- Sequence (P98170 whole entry): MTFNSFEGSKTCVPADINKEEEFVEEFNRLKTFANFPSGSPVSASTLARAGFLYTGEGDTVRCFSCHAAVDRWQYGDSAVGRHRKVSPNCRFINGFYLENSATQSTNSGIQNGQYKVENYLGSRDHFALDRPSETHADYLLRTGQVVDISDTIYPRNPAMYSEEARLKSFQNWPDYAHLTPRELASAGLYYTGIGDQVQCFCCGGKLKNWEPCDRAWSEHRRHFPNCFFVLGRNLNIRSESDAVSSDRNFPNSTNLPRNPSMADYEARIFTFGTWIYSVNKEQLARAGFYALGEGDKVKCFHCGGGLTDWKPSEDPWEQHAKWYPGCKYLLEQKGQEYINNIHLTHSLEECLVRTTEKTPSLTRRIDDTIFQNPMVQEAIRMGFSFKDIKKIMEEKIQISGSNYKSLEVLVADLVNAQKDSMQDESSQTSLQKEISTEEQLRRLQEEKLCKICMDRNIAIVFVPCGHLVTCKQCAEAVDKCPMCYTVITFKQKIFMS
- test name: Counter Screen using XIAP-Bir3 for Chemical Antagonists of Bir1/2 domains of IAP-family anti-apoptotic proteins. [Related pubchem assays (depositor defined):AID1018, AID1449, AID1514, AID1638, AID1749, AID1750, AID488957, AID488963]
Activity calls are given as the source filed them.
Recorded IC50 values for a group of compounds are listed next.

# compound, IC50
measured = [
    ("CC(SCc1ccccc1)C(=O)NCc1ccccn1 (centres undefined)", "> 100 µM (inactive)"),
    ("Cc1cc(NC(=O)Cc2csc(-c3ccccc3)n2)ccc1Br", "> 100 µM (inactive)"),
    ("CCSc1nnc(NC(=O)c2cc(-c3ccc(C)c(C)c3O)[nH]n2)s1", "> 100 µM (inactive)"),
    ("CCOC(=O)C1=C(C)N=c2s/c(=C\\c3ccc(OCC(=O)O)cc3)c(=O)n2C1c1ccc(Cl)cc1 (centres undefined)", "> 20 µM (inactive)"),
]

---

- Test system: H4
- test name: Luminescence Cell-Based Dose Response HTS to Identify Activators of 5'UTR Stem-Loop Driven Prion Protein mRNA Translation in H4 Neuroglioblastoma Cells. [Related pubchem assays: 1829 (Project Summary), 1814 (Primary HTS)]
- Format: functional
- test conditions: Homo sapiens
Activity calls are given as the source filed them.

# molecule, EC50
rows = [
    ("CCCCOc1ccc(C2CCC(C(C)=O)C(C)C2)cc1 (centres undefined)", "41.5 µM (active)"),
    ("CCOC(=O)N/N=C1\\CCc2ccccc21", "11.7 µM (active)"),
    ("Cc1ccc2oc(-c3cccc(NC(=O)Cn4cnc5c(=O)n(C)c(=O)n(C)c54)c3)nc2c1", "6.94 µM (active)"),
    ("COCc1nc2oc3ccc(C)cc3c(=O)c2cc1C(=O)OC", "> 120 µM (not active)"),
]

---

- system tested: Heat shock protein HSP 90-alpha (Homo sapiens)
- Type: functional, organism-based
The source made the active and inactive calls.
Measured AC50 of individual entries

# compound, AC50
data = [
    ("CCCc1ccc(Oc2c[nH]nc2-c2ccc(O)c(C)c2O)cc1", "3.08 µM (active)"),
    ("CCOC(=O)c1ccc(N2C(=O)CC(N3CCC(C(=O)OCC)CC3)C2=O)cc1 (stereo unspecified)", "7.24 µM (active)"),
    ("CC(C)CC(=O)/C(=C\\c1ccc(Cl)cc1Cl)n1cncn1", "2.04 µM (active)"),
    ("O=C(/C=C/c1cccc([N+](=O)[O-])c1)c1ccc([N+](=O)[O-])o1", "0.557 µM (active)"),
    ("CC(C)=CCc1c2c(c3occ(-c4ccc(O)c(O)c4)c(=O)c3c1O)C=CC(C)(C)O2", "13.3 µM (active)"),
    ("COc1cc(SC)ccc1C(=O)Nc1nc2ccccc2[nH]1", "1.42 µM (active)"),
]

---

- system tested: RNA-binding protein pos-1 (Caenorhabditis elegans)
- Sequence (G5EF15 whole entry, the tested form may be a part): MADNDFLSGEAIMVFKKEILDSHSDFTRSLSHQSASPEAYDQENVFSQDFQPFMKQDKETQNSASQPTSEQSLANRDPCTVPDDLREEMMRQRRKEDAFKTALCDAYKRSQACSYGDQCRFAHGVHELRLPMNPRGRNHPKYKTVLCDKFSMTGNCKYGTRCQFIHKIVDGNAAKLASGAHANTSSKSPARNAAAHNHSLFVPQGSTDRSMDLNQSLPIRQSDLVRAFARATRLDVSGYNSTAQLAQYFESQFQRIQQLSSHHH
- test name: inhibitors of POS-1/mex-3 RNA binding, dose response, biochemical, fluorescence polarization (AID 1964);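 also: purified POS-1 fused to maltose binding protein made in E. coli; potency of compounds blocking POS-1 binding to fluorescent RNA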
The source made the active and inactive calls.
Recorded measurements of EC50, one per entry
reported metric: EC50

# compound, reported value
rows = [
    ("O=S(=O)([N-]c1nc2ccccc2nc1-[n+]1ccc(CCCc2ccccc2)cc1)c1cccs1", "35.4 µM (active)"),
    ("CC(C)OCC(O)CN1CCN(CCN2C(=O)c3cccc4cccc(c34)C2=O)CC1 (stereo not given)", "> 300 µM (not active)"),
    ("S=C1NC2(CCS1)Oc1ccccc1C1CC(c3ccccc3)=NN12 (stereo not given)", "> 300 µM (not active)"),
    ("CC(NC(=O)COc1ccccc1)C(=O)OCC(=O)c1cc2ccccc2o1 (stereo not given)", "> 300 µM (not active)"),
    ("COC(=O)Cn1cc(C=C2C(=O)NC(=O)NC2=O)c2ccccc21", "> 300 µM (not active)"),
    ("COc1ccc(/C=N/N=C2/CC(C)(C)Cc3nnc(O)cc32)cc1", "41.4 µM (active)"),
    ("Cc1cc(/C=C2\\C(=O)NC(=O)N(c3ccc(F)cc3)C2=O)c(C)n1-c1cccc(C(=O)O)c1", "> 300 µM (not active)"),
    ("CCn1c(=N)c(S(=O)(=O)c2ccccc2)cc2c(=O)n3ccccc3nc21", "> 300 µM (not active)"),
    ("Cn1c(=O)c2[nH]c(N=NNc3ccccc3F)nc2n(C)c1=O", "62 µM (active)"),
    ("COc1ccc(C2C(C#N)=C(/N=C/N3CCN(C)CC3)OC3=C2C(=O)CC(C)(C)C3)cc1 (stereo not given)", "> 300 µM (not active)"),
]

---

- test name: CRF-BP/CRF-R2 complex antagonists, dose response, cell-based, uHTS hits, 384-well (AID 651639)
- Type: functional, Homo sapiens
- test conditions: read-out: IC50_Mean
Active and inactive are the calls of the source.
Recorded IC50 by entry
reported metric: IC50

# input smiles, reported value
data = [
    ("O=C(c1cccc(S(=O)(=O)N2CCOCC2)c1)N(Cc1ccc(F)cc1)Cc1ccco1", "> 20 µM (inactive)"),
    ("COc1ccc(-c2c(C(F)(F)F)nn3c(O)cc(-c4ccccc4)nc23)cc1", "15.7 µM (active)"),
    ("O=C(ON=C1CCN(c2ccc([N+](=O)[O-])cc2)CC1)c1ccccc1", "> 20 µM (inactive)"),
    ("Cc1nc2cc(C(=O)NCc3ccc4c(c3)OCO4)ccc2n1-c1ccc(Br)cc1", "> 20 µM (inactive)"),
]

---

- test name: inhibitors of intracellular T. cruzi replication, confirmation, NIH3T3 host cells, beta-gal luminescence (AID 2044);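 also: intracellular parasites grown in NIH/3T3 mouse fibroblasts as host cells; luminescent beta-galactosidase reporter signal from transgenic T. cruzi replicating inside host cells; inhibitors lower the luminescence signal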
- Assay type: functional, cell-based
Active and inactive are the calls of the source.
Item-by-item account of EC50

# molecule, EC50
records = [
    ("COc1ccc2cc(/C(C)=N/NC(=S)Nc3cc(S(=O)(=O)N4CCOCC4)ccc3N3CCOCC3)ccc2c1", "572 nM (active)"),
    ("CC(=O)N(C(C)=O)c1ncnc2c1c(-c1ccc(Cl)cc1)nn2C(C)(C)C", "512 nM (active)"),
    ("CCC1=Nc2cc(C(=O)NCCCOC)ccc2Sc2ccccc21", "5010 nM (active)"),
    ("COc1ccc(-c2nn(-c3ccccc3)cc2CNC(=O)c2cccc([N+](=O)[O-])c2)cc1", "1750 nM (active)"),
    ("Cc1cc(C)c2nc(NNC(=O)c3ccc(S(=O)(=O)N4CCCC(C)C4)cc3)sc2c1 (stereo unspecified)", "1790 nM (active)"),
    ("COC(=O)CCN(C(=O)c1cc([N+](=O)[O-])cc([N+](=O)[O-])c1)c1ccccn1", "1380 nM (active)"),
]

---

- test name: inhibitors of firefly luciferase expression or activity, dose response, H4 neuroglioma cells, luminescence (AID 1990)
- Assay type: functional, cell-based
Active and inactive are the calls of the source.
reported metric: EC50

# input smiles, reported value
data = [
    ("O=C(COc1ncnc2sccc12)N1CCN(C(=O)c2ccco2)CC1", "> 120 µM (not active)"),
    ("CC(=O)N(C(C)=O)c1ncnc2c1c(-c1ccc(Cl)cc1)nn2C(C)(C)C", "13.1 µM (active)"),
    ("COc1cccc2sc(Nc3nc(-c4ccncc4)cs3)nc12", "3.2 µM (active)"),
    ("CCc1ccc(CNn2cnnc2SCC(=O)NC(C)(C)C)cc1", "> 120 µM (not active)"),
    ("CCC1=Nc2cc(C(=O)NCCCOC)ccc2Sc2ccccc21", "8.66 µM (inconclusive)"),
    ("N=C(N)N/N=C/c1ccc(OCc2ccccc2)c(OCc2ccccc2)c1", "8.78 µM (active)"),
]

---

- system tested: Heat shock factor protein 1 (Mus musculus, UniProt P38532)
- Sequence (P38532 whole entry): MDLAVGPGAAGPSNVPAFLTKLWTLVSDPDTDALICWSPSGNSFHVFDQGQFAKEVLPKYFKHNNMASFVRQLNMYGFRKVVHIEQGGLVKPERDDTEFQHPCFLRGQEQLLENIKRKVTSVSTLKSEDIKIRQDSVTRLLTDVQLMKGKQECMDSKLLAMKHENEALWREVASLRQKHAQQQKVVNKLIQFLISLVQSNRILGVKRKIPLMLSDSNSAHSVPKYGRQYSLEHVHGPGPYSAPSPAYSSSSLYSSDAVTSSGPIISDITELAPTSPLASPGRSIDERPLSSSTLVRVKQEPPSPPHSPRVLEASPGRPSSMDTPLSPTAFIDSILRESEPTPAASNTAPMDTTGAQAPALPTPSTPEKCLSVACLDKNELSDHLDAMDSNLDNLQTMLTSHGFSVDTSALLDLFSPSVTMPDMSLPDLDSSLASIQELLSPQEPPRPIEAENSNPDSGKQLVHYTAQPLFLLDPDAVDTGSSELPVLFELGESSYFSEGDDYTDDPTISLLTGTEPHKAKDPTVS
- test name: inhibition of MG132-induced HSE-luciferase signal, confirmation, cell-based, NIH3T3, luminescence, dose retest (AID 2382);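 also: NIH3T3 fibroblasts with HSF1-driven luciferase reporter stressed by proteasome inhibitor MG132; luminescence from HSF1-driven luciferase expression after 8 hours of MG132 stress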
- Assay type: functional
Calls of active or inactive are those of the source.

# molecule, system tested, EC50
data = [
    ("CCN(c1ccccc1)S(=O)(=O)c1c[nH]cn1", "Heat shock factor protein 1 (Mus musculus, UniProt P38532)", "> 195 µM (not active)"),
    ("Cc1ccc(C(c2sc3ncnn3c2O)N2CC(C)CC(C)C2)cc1 (stereo unspecified)", "Heat shock factor protein 1 (Mus musculus, UniProt P38532)", "> 195 µM (not active)"),
    ("Cc1ccc(S(=O)(=O)N2CCC(C)CC2)cc1[N+](=O)[O-]", "Heat shock factor protein 1 (Mus musculus, UniProt P38532)", "> 195 µM (not active)"),
    ("Cc1cc(C(=O)NC2CCCN(Cc3ccc(Cl)cc3)C2)n(C)n1 (stereo unspecified)", "Heat shock factor protein 1 (Mus musculus, UniProt P38532)", "> 195 µM (not active)"),
    ("O=C(CCl)Nc1cn(-c2ccccc2)nc1-c1ccc(F)cc1", "Heat shock factor protein 1 (Mus musculus, UniProt P38532)", "6.91 µM (active)"),
    ("CC(Sc1nc2ccccc2s1)C(=O)Nc1nnc(C(C)C)s1 (stereo unspecified)", "Heat shock factor protein 1 (Mus musculus, UniProt P38532)", "> 195 µM (not active)"),
    ("COCCN(Cc1ccccc1)C(S)=Nc1ccc(Cl)cc1", "Heat shock factor protein 1 (Mus musculus, UniProt P38532)", "30.3 µM (active)"),
    ("COc1ccc(F)cc1C(=O)C1CCCN(Cc2cccn2-c2ccccn2)C1 (stereo unspecified)", "Heat shock factor protein 1 (Mus musculus, UniProt P38532)", "> 195 µM (not active)"),
    ("O=C(c1cc2c(s1)-c1ccccc1OC2)N1CCN(c2ccccc2)CC1", "Heat shock factor protein 1 (Mus musculus, UniProt P38532)", "> 195 µM (not active)"),
    ("CCCSc1nnc(CNS(=O)(=O)c2ccc(C)cc2)n1C", "Heat shock factor protein 1 (Mus musculus, UniProt P38532)", "> 195 µM (not active)"),
    ("CCN1C(=O)C(c2ccc(O)cc2)(c2ccc(O)cc2)c2ccccc21", "Heat shock factor protein 1 (Mus musculus, UniProt P38532)", "> 195 µM (not active)"),
]
